# Test system: rodent lifetime carcinogenesis bioassay, tumor incidence TD50
# ASSAY NAME: carcinogenic potency in animals, long-term in vivo studies, CPDB compilation (AID 1745844)
# MEASUREMENT PARAMETERS: rat; strain Wistar; males; in feed; site: kidney; lesion: cortical carcinoma; dosed 47 weeks; study length 104 weeks
MEASURED ENDPOINT: TD50

Query: Give a short answer stating reported TD50 for O=[N+]([O-])c1ccc2c(c1)Cc1ccccc1-2 .
Result: 2.35 mg/kg/day

====

# System: rodent lifetime carcinogenesis bioassay, tumor incidence TD50
# ASSAY NAME: carcinogenic potency in animals, long-term in vivo studies, CPDB compilation (AID 1745844)
# MEASUREMENT PARAMETERS: mouse; strain AP Alderly Park; females; in feed; site: liver; lesion: hepatoma; dosed 100 weeks; study length 100 weeks
Calls of active or inactive are those of the source. No rule for the calls is given here.
MEASURED ENDPOINT: TD50

Query: Annotate the compound O=CC(O)C(O)C(O)C(O)CO (stereo unspecified) with its measured TD50.
Result: 538000 mg/kg/day (inactive)

====

# System: rodent lifetime carcinogenesis bioassay, tumor incidence TD50
# ASSAY NAME: carcinogenic potency in animals, long-term in vivo studies, CPDB compilation (AID 1745844)
# MEASUREMENT PARAMETERS: mouse; strain B6C3F1; females; inhaled; site: all sites + forestomach + heart + liver + lung + mammary gland + ovary; lesion: malignant lymphoma, NOS + squamous-cell papilloma + hemangiosarcoma + hepatocellular adenoma + hepatocellular carcinoma + alveolar; dosed 61 weeks; study length 61 weeks
MEASURED ENDPOINT: TD50 (mg/kg/day)
Record the value in mg/kg/day, omitting the unit from your answer.

Query: Write down the reported TD50 (system: rodent lifetime carcinogenesis bioassay, tumor incidence TD50) of C=CC=C
Result: 53

====

# System: rodent lifetime carcinogenesis bioassay, tumor incidence TD50
# ASSAY NAME: carcinogenic potency in animals, long-term in vivo studies, CPDB compilation (AID 1745844)
# MEASUREMENT PARAMETERS: rat; strain Osborne-Mendel; males; in feed; site: all sites; lesion: hemangioma; dosed 80 weeks; study length 109 weeks
Calls of active or inactive are those of the source. How the calls were made is not given here.
MEASURED ENDPOINT: TD50

Query: // fetch TD50 given entry ClC1C2(Cl)C3C4C5OC5C5C4C1(Cl)C(Cl)(C53)C2(Cl)Cl (stereo unspecified)
Result: 2.89 mg/kg/day (inactive)

====

# Tested on: rodent lifetime carcinogenesis bioassay, tumor incidence TD50
# ASSAY NAME: carcinogenic potency in animals, long-term in vivo studies, CPDB compilation (AID 1745844)
# MEASUREMENT PARAMETERS: rat; strain Fischer 344; males; in feed; site: all sites + colon + esophagus + gingiva + jejunum + lung + mammary gland + palate + skin + subcutaneous tissue + thyroid gland + tongue + urinar; lesion: mononuclear-cell leukemia + mesothelioma, malignant + adenomatous polyp + squamous-cell papilloma + squamous-cell carcinoma + carc; dosed 104 weeks; study length 105 weeks
MEASURED ENDPOINT: TD50
Reply with a number, then the unit it belongs to.

Query: Find the measured TD50 of OCC(CO)(CBr)CBr and report it.
Result: 68.1 mg/kg/day

====

# System: rodent lifetime carcinogenesis bioassay, tumor incidence TD50
# ASSAY NAME: carcinogenic potency in animals, long-term in vivo studies, CPDB compilation (AID 1745844)
# MEASUREMENT PARAMETERS: rat; strain Fischer 344; females; in feed; site: uterus; lesion: leiomyosarcoma; dosed 104 weeks; study length 105 weeks
MEASURED ENDPOINT: TD50

Query: Could you please provide reported TD50 for CN(C)NC(=O)CCC(=O)O ? Thanks!
Result: 5270 mg/kg/day
